Kindly supply the reported polymerase ribozyme fitness (log ratio) values for the records listed here.
B1: TPR 5TU (parent)
chain: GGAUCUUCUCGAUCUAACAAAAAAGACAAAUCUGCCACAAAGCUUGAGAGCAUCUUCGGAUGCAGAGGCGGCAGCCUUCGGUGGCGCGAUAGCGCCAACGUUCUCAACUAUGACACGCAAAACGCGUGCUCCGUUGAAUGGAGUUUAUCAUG

variants of: B1; assay: polymerase ribozyme fitness, log enrichment relative to wild type (log ratio); higher = more active; in vitro selection for triplet polymerase activity
This sample holds only a part of the variants without activity.

I am curious: what polymerase ribozyme fitness (log ratio) value has been reported for A19C U55G C96A C108G C116G A119C ?
≤ -4.2

Next variant up: U6C A16U A17G C85U A89G
≤ -4.2

Next variant up: A12C G50A G59C G92U
-2.67

Next variant up: A21C C96U A122C
-0.0635

Next variant up: U9G C96U A97G C103G A115U U127A
≤ -4.2

Next variant up: A98G U127G G141A
≤ -4.2

Next variant up: A24U C35U G42C C93U G136C A142G
-4.03

Next variant up: A47G U55A G84U G128A
≤ -4.2

Next variant up: A21C G81C G88A A107G
≤ -4.2

Next variant up: C35U A52G C76A A89C U145A
-3.45

Next variant up: U55A C79U G83A C93A A97C A138U
≤ -4.2
